tested on: A. baumannii ATCC 19606; type: cell-based, Acinetobacter baumannii; conditions: ATCC 19606, 20 h
Where a SMILES comes first, the peptide text is derived from it. [ ]: non-standard residue; d: D form. hArg = N=C(N)NCCCC[C@H](N)C(=O)O; 2Thi = N[C@@H](Cc1cccs1)C(=O)O; Dab = NCC[C@H](N)C(=O)O; Dap = NC[C@H](N)C(=O)O
Task for the reader: assign each of the following compounds its reported MIC.
The response must be a number in µg/mL with no trailing unit.

Please report the recorded MIC for CC(C)C[C@H](NC(=O)[C@H](CC(C)C)NC(=O)[C@@H](CCCCN)NC(=O)[C@@H](CCCCN)NC(=O)[C@H](Cc1ccccc1)NC(=O)[C@H](CC(C)C)NC(=O)[C@@H](CCCNC(=N)N)NC(=O)[C@H](N)CCCCN)C(=O)N[C@H](CCCCN)C(=O)N[C@@H](Cc1ccc(O)cc1)C(=O)N[C@@H](CC(C)C)C(=O)N[C@H](CCCNC(=N)N)C(=O)N[C@H](CCCCN)C(=O)N[C@@H](Cc1ccccc1)C(N)=O [DP06] (H-[dK][dR]LF[dK][dK]LL[dK]YL[dR][dK]F-NH2) .
1

Would you mind doing CC(C)C[C@H](NC(=O)[C@H](Cc1ccc(O)cc1)NC(=O)[C@H](CCN)NC(=O)[C@H](CC(C)C)NC(=O)[C@H](CC(C)C)NC(=O)[C@H](CCN)NC(=O)[C@H](CCN)NC(=O)[C@H](Cc1ccccc1)NC(=O)[C@H](CC(C)C)NC(=O)[C@H](CCCCNC(=N)N)NC(=O)[C@@H](N)CCN)C(=O)N[C@@H](CCCNC(=N)N)C(=O)N[C@@H](CCN)C(=O)N[C@@H](Cc1ccccc1)C(N)=O [UP12] (H-[Dab][hArg]LF[Dab][Dab]LL[Dab]YLR[Dab]F-NH2) as well?
2

Would you mind doing CC(C)C[C@H](NC(=O)[C@H](Cc1ccc(O)cc1)NC(=O)[C@H](CCN)NC(=O)[C@H](CC(C)C)NC(=O)[C@H](CC(C)C)NC(=O)[C@H](CCN)NC(=O)[C@H](CN)NC(=O)[C@H](Cc1cccs1)NC(=O)[C@H](CC(C)C)NC(=O)[C@H](CCCNC(=N)N)NC(=O)[C@@H](N)CCN)C(=O)N[C@@H](CCCCNC(=N)N)C(=O)N[C@@H](CCN)C(=O)N[C@@H](Cc1ccccc1)C(N)=O [UP15] (H-[Dab]RL[2Thi][Dap][Dab]LL[Dab]YL[hArg][Dab]F-NH2) as well?
2

Would you mind doing CC(C)C[C@H](NC(=O)[C@H](Cc1ccc(O)cc1)NC(=O)[C@H](CCCCN)NC(=O)[C@H](CC(C)C)NC(=O)[C@H](CC(C)C)NC(=O)[C@@H](CCCCN)NC(=O)[C@@H](CCCCN)NC(=O)[C@H](Cc1ccccc1)NC(=O)[C@H](CC(C)C)NC(=O)[C@@H](CCCNC(=N)N)NC(=O)[C@H](N)CCCCN)C(=O)N[C@@H](CCCNC(=N)N)C(=O)N[C@H](CCCCN)C(=O)N[C@@H](Cc1ccccc1)C(N)=O [DP05] (H-[dK][dR]LF[dK][dK]LLKYLR[dK]F-NH2) as well?
1

Would you mind doing CC(C)C[C@H](NC(=O)[C@H](CCCCN)NC(=O)[C@H](CCCCN)NC(=O)[C@H](Cc1ccccc1)NC(=O)[C@H](CC(C)C)NC(=O)[C@H](CCCNC(=N)N)NC(=O)[C@@H](N)CCCCN)C(=O)N[C@@H](CC(C)C)C(=O)N[C@@H](CCCCN)C(=O)N[C@@H](Cc1ccc(O)cc1)C(=O)N[C@@H](CC(C)C)C(=O)N[C@@H](CCCNC(=N)N)C(=O)N[C@H](CCCCN)C(=O)N[C@@H](Cc1ccccc1)C(N)=O [DP03] (H-KRLFKKLLKYLR[dK]F-NH2) as well?
2

Would you mind doing CC(C)C[C@H](NC(=O)[C@H](Cc1ccc(O)cc1)NC(=O)[C@H](CCCCN)NC(=O)[C@H](CC(C)C)NC(=O)[C@H](CC(C)C)NC(=O)[C@H](CCCCN)NC(=O)[C@H](CCCCN)NC(=O)[C@H](Cc1ccccc1)NC(=O)[C@H](CC(C)C)NC(=O)[C@H](CCCNC(=N)N)NC(=O)[C@@H](N)CCCCN)C(=O)N[C@@H](CCCNC(=N)N)C(=O)N[C@@H](CCCCN)C(=O)N[C@@H](Cc1cccs1)C(N)=O [UP08] (H-KRLFKKLLKYLRK[2Thi]-NH2) as well?
2

Would you mind doing CC(C)C[C@H](NC(=O)[C@H](Cc1ccc(O)cc1)NC(=O)[C@H](CCCCN)NC(=O)[C@H](CC(C)C)NC(=O)[C@H](CC(C)C)NC(=O)[C@H](CCCCN)NC(=O)[C@H](CCCCN)NC(=O)[C@H](Cc1ccccc1)NC(=O)[C@H](CC(C)C)NC(=O)[C@H](CCCNC(=N)N)NC(=O)[C@@H](N)CCCCNC(=N)N)C(=O)N[C@@H](CCCNC(=N)N)C(=O)N[C@@H](CCCCN)C(=O)N[C@@H](Cc1cccs1)C(N)=O [UP10] (H-[hArg]RLFKKLLKYLRK[2Thi]-NH2) as well?
2

Would you mind doing CC(C)C[C@H](NC(=O)[C@H](Cc1ccc(O)cc1)NC(=O)[C@H](CCN)NC(=O)[C@H](CC(C)C)NC(=O)[C@H](CC(C)C)NC(=O)[C@H](CN)NC(=O)[C@H](CN)NC(=O)[C@H](Cc1ccccc1)NC(=O)[C@H](CC(C)C)NC(=O)[C@H](CCCCNC(=N)N)NC(=O)[C@@H](N)CN)C(=O)N[C@@H](CCCCNC(=N)N)C(=O)N[C@@H](CCN)C(=O)N[C@@H](Cc1cccs1)C(N)=O [UP11] (H-[Dap][hArg]LF[Dap][Dap]LL[Dab]YL[hArg][Dab][2Thi]-NH2) as well?
2

Would you mind doing CC(C)C[C@H](NC(=O)[C@H](Cc1ccc(O)cc1)NC(=O)[C@H](CCCCN)NC(=O)[C@H](CC(C)C)NC(=O)[C@H](CC(C)C)NC(=O)[C@H](CCCCN)NC(=O)[C@H](CCCCN)NC(=O)[C@H](Cc1cccs1)NC(=O)[C@H](CC(C)C)NC(=O)[C@H](CCCNC(=N)N)NC(=O)[C@@H](N)CCCCN)C(=O)N[C@@H](CCCNC(=N)N)C(=O)N[C@@H](CCCCN)C(=O)N[C@@H](Cc1cccs1)C(N)=O [UP07] (H-KRL[2Thi]KKLLKYLRK[2Thi]-NH2) as well?
2
